Record form. Attribute: TGI. Fill in for each entry.
test system: OVCAR-8 ovarian; experiment: NCI tumour cell line growth inhibition, 48 h

>>> print(df.to_string())
                                   molecule  measuredproperty  valuemeasured
0   Nc1c(C(=O)Nc2ccccn2)sc2nc3c(cc12)CCCCC3               TGI        > 50 µM
1                        CNC(=S)NC(=S)N(C)C               TGI       > 100 µM
2  CC(=O)Nc1ccc(NNc2cc(=O)n(C)c(=O)[nH]2)cc1               TGI        45.1 µM
3  CCOC(=O)C1(c2ccccc2)CCCNCC1 (stereo not given)               TGI       > 100 µM
4  COc1ccc2c(=O)c(-c3cc4c(cc3OC)OCO4)coc2c1               TGI       > 100 µM
5           Cc1cc(-c2c(Br)cc(C(=O)O)n2C)on1               TGI       > 100 µM
6  C=C1C/C(=C/C)C(=O)O[C@@H]2CCN3CC=C(COC(=O)[C@]1(C)O)[C@H]23               TGI       > 100 µM
7  COc1cc2c(c(OC)c1OC)-c1ccc(SC)c(=O)cc1[C@@H](OC(=O)c1ccncc1)CC2               TGI       > 100 µM

State the recorded TGI for every item in the following list.
1. O=S(=O)(c1ccccc1)C1CN2OC1(S(=O)(=O)c1ccccc1)CC21CCCCC1 (stereo not given)
2. O=[N+]([O-])c1ccc(N=Nc2c(O)[nH]c3ccc(Br)cc23)cc1

1: > 100 µM; 2: 28.3 µM
